Data origin: ChEMBL document CHEMBL1201862

# Test system: HL-60
# Assay Procedure: NCI tumour cell line growth inhibition, 48 h
Calls of active or inactive are those of the source. Rule as the data show it: active = GI50 up to about 1.1 µM and inactive = higher.
Measurement Label: GI50

Please review the entries below; each comes with its answer.
>  <Compound>
COC(=O)CNS(=O)(=O)c1ccc(-c2c3nc(c(-c4ccc(S(=O)(=O)NCC(=O)OC)cc4)c4ccc([nH]4)c(-c4ccc(S(=O)(=O)NCC(=O)OC)cc4)c4nc(c(-c5ccc(S(=O)(=O)NCC(=O)OC)cc5)c5ccc2[nH]5)C=C4)C=C3)cc1

>  <Measurement Label>
GI50

>  <Assay Value>
> 100 µM (inactive)

$$$$
>  <Compound>
CCCNC(=O)NNC(=O)c1c[nH]c2nc(C)ccc2c1=O

>  <Measurement Label>
GI50

>  <Assay Value>
> 100 µM (inactive)

$$$$
>  <Compound>
COC(=O)/C=C/c1ccc2c(c1)CC1(Cc3ccccc3C1)C2

>  <Measurement Label>
GI50

>  <Assay Value>
30.5 µM (inactive)

$$$$

Please turn your attention to the following entry.
IN: Specify GI50 for O=C1/C(=C\c2cccc(Oc3ccccc3)c2)SC(c2ccccc2)N1c1cc(Cl)ccc1Cl (centres undefined) , system HL-60.
OUT: 15.1 µM (inactive)
